Origin of values: ChEMBL document CHEMBL1140647

# system-name: Beta-3 adrenergic receptor (Homo sapiens, UniProt P13945)
# Sequence (P13945 whole entry, looked up): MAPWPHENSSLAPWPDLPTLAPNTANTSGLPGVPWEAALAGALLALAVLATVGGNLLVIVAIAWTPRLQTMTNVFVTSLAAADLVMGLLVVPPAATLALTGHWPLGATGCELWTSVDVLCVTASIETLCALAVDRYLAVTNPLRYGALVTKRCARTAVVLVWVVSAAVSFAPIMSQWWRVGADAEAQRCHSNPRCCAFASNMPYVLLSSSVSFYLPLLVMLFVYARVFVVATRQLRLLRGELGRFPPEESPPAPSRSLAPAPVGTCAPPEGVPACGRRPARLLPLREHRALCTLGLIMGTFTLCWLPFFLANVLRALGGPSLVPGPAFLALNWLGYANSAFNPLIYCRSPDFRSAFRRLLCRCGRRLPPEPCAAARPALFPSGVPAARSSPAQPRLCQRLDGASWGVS
# test-description: Agonist activity at human beta-3 adrenergic receptor expressed in CHO cells assessed as cAMP accumulation relative to R-(-)-isoproterenol
# Format: functional, cell-based
Let's look at some compounds and their measured Emax.
readout-type: Emax (%)

chem-smiles	readout-type	value-unit	value-observed
C[C@H](CNc1ccc(-c2ocnc2C(=O)O)cc1)NC[C@H](O)c1cccc(Cl)c1	Emax	%	90
C[C@H](CNc1ccc(-c2occc2C(=O)O)cc1)NC[C@H](O)c1cccc(Cl)c1	Emax	%	85
O=C(O)c1ccoc1-c1cccc(NCCNC[C@H](O)c2cccc(Cl)c2)c1	Emax	%	91
C[C@H](CNc1cccc(-c2nc(C(=O)O)co2)c1)NC[C@H](O)c1cccc(Cl)c1	Emax	%	115
C[C@H](CNc1cccc(-c2occc2C(=O)O)c1)NC[C@H](O)c1cccc(Cl)c1	Emax	%	87
C[C@H](CNc1cccc(-c2csc(C(=O)O)n2)c1)NC[C@H](O)c1cccc(Cl)c1	Emax	%	97

* * *

# Species on record: Homo sapiens
# test-description: Selectivity ratio of pEC50 for human beta-3 adrenergic receptor over beta-1 adrenergic receptor
Label condition not met if Selectivity ratio falls below 8; label condition met in every other case.

chem-smiles	category-label
C[C@H](CNc1cccc(-c2nc(C(=O)O)cs2)c1)NC[C@H](O)c1cccc(Cl)c1	condition met
C[C@H](CNc1cccc(-c2occc2C(=O)O)c1)NC[C@H](O)c1cccc(Cl)c1	condition met
C[C@H](CNc1cccc(-c2ocnc2C(=O)O)c1)NC[C@H](O)c1cccc(Cl)c1	condition met
O=C(O)c1ccsc1-c1cccc(NCCNC[C@H](O)c2cccc(Cl)c2)c1	condition met
C[C@H](CNc1ccc(-c2ocnc2C(=O)O)cc1)NC[C@H](O)c1cccc(Cl)c1	condition met
C[C@H](CNc1ccc(-c2occc2C(=O)O)cc1)NC[C@H](O)c1cccc(Cl)c1	condition met
C[C@H](CNc1ccc(-c2nc(C(=O)O)co2)cc1)NC[C@H](O)c1cccc(Cl)c1	condition not met
C[C@H](CNc1ccc(-c2nc(C(=O)O)cs2)cc1)NC[C@H](O)c1cccc(Cl)c1	condition not met
